assayed system: human CXCL13 (Homo sapiens, UniProt O43927)
Sequence (O43927 23-109): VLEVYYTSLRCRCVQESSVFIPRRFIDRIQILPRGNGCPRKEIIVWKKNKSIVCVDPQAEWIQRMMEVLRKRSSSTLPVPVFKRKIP
test description: SPR
pKd: −log10 of the molar value.
Label true (1) when pKd >= 10; otherwise false (0).

Does pKd meet or surpass 10 for anti-CXCL13 H08 scFv-Fc fusion protein (Fc fusion, human) VH: QVQLVQSGAEVKKPGSSVKVSCKASGGTFSSYAISWVRQAPGQGLEWMGGIIPIFGTANYAQKFQGRVTITADESTSTAYMELSSLRSEDTAVYYCAREPDYYDSSGYYPIDAFDIWGQGTTVTVSS VL: QSALTQPASVSASPGQSITISCTGTSSDVGAYDWVSWYQQHPGKAPKLLIFDVNNRPSGVSHRFSGSKSGNTASLTISGLQAEDEADYYCTSVTVEDTYVFGTGTKVTVL ?
true (1)

Confirm if pKd reported for the binder anti-CXCL13 C07 scFv-Fc fusion protein (Fc fusion, human) VH: QVQLVQSGAEVKKPGSSVKVSCKASGGTFSSYAISWVRQAPGQGLEWMGGIIPIFGTANYAQKFQGRVTITADESTSTAYMELSSLRSEDTAVYYCAREPDYYDSSGYYPIDAFDIWGQGTTVTVSS VL: QSALTQPASVSASPGQSITISCTGTSSDVGAYDWVSWYQQHPGKAPKLLIFDVNNRPSGVSHRFSGSKSGNTASLTISGLQAEDEADYYCSSPTFTEPYVFGTGTKVTVL is 10 or above.
true (1)

Could you tell me if the measured pKd of anti-CXCL13 H06 scFv-Fc fusion protein (Fc fusion, human) VH: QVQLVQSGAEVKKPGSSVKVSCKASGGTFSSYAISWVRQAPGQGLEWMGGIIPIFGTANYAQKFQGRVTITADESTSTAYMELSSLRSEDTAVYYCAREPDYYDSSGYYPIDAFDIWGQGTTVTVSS VL: QSALTQPASVSASPGQSITISCTGTSSDVGAYDWVSWYQQHPGKAPKLLIFDVNNRPSGVSHRFSGSKSGNTASLTISGLQAEDEADYYCASVVVTDTYVFGTGTKVTVL reaches 10 or more?
true (1)

pKd >= 10 for anti-CXCL13 3B4 scFv-Fc fusion protein (Fc fusion, human) VH: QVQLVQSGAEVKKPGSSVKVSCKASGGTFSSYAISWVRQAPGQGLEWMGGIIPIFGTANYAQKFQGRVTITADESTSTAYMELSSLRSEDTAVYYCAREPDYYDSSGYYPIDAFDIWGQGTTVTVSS VL: QSALTQPASVSASPGQSITISCTGTSSDVGAYDWVSWYQQHPGKAPKLLIFDVNNRPSGVSHRFSGSKSGNTASLTISGLQAEDEADYYCSSYTRRDTYVFGTGTKVTVL ?
false (0)

Confirm if pKd reported for the binder anti-CXCL13 E10 scFv-Fc fusion protein (Fc fusion, human) VH: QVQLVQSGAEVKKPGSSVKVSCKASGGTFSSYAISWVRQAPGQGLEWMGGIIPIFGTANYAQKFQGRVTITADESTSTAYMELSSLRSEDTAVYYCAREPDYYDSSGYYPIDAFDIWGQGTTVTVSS VL: QSALTQPASVSASPGQSITISCTGTSSDVGAYDWVSWYQQHPGKAPKLLIFDVNNRPSGVSHRFSGSKSGNTASLTISGLQAEDEADYYCASATLLDTYVFGTGTKVTVL is 10 or above.
true (1)

Could you verify whether the entry anti-CXCL13 A01 scFv-Fc fusion protein (Fc fusion, human) VH: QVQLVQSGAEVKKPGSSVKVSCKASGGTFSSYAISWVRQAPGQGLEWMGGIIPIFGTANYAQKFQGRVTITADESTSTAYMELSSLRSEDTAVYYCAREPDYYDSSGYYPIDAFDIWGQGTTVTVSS VL: QSALTQPASVSASPGQSITISCTGTSSDVGAYDWVSWYQQHPGKAPKLLIFDVNNRPSGVSHRFSGSKSGNTASLTISGLQAEDEADYYCASTTLFDTYVFGTGTKVTVL shows pKd of no less than 10?
true (1)

Sourced from paper PMC3896602
